- Assayed system: T1, Peptide-63 (cysteine pairing not given here; also: biotinylated, site not given here)
- T1 peptide: IDFCLIYNWPVCDT
- Assay summary: ELISA, Fab on captured biotin-peptide
Where no end group is shown, it is not given here.
Quantity: log10 EC50 (log10 of the value in nM)
In plain terms, each number is the log10 of measured EC50 in nM.

# Binder, log10 EC50
rows = [
    ("TBD-1 wt (Fab, V domains shown, Fab; the heavy chain entry is VH-CH1; also called wild-type anti-TROP2 Fab (hRS7); TROP2 Fab) VH: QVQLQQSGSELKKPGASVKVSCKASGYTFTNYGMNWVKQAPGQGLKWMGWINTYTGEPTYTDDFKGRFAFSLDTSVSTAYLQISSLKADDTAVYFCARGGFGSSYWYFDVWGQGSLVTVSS VL: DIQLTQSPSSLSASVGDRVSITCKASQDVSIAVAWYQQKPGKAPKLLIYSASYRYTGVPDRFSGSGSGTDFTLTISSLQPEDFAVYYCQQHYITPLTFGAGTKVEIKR", 2.21),
    ("TBD-11 (HC R98A) (Fab, V domains shown, Fab; also called HC R98A mutant) VH: QVQLQQSGSELKKPGASVKVSCKASGYTFTNYGMNWVKQAPGQGLKWMGWINTYTGEPTYTDDFKGRFAFSLDTSVSTAYLQISSLKADDTAVYFCAAGGFGSSYWYFDVWGQGSLVTVSS VL: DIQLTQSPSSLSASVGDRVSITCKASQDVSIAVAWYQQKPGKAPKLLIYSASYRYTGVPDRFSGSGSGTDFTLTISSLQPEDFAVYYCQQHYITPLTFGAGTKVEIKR", 2.36),
]

Data request: Please look up its log10 EC50: TBD-22 (HC D109A) (Fab, V domains shown, Fab; also called HC D109A mutant) VH: QVQLQQSGSELKKPGASVKVSCKASGYTFTNYGMNWVKQAPGQGLKWMGWINTYTGEPTYTDDFKGRFAFSLDTSVSTAYLQISSLKADDTAVYFCARGGFGSSYWYFAVWGQGSLVTVSS VL: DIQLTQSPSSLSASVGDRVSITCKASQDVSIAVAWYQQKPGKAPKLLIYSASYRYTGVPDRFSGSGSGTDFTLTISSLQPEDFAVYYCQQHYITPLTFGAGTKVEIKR
Data returned: 0.23

Data request: Please look up its log10 EC50: TBD-17 (HC S104A) (Fab, V domains shown, Fab; also called HC S104A mutant) VH: QVQLQQSGSELKKPGASVKVSCKASGYTFTNYGMNWVKQAPGQGLKWMGWINTYTGEPTYTDDFKGRFAFSLDTSVSTAYLQISSLKADDTAVYFCARGGFGSAYWYFDVWGQGSLVTVSS VL: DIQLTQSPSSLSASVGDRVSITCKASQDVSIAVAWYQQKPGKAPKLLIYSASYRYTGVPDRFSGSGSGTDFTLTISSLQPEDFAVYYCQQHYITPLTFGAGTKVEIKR
Data returned: 1.48

Data request: Please look up its log10 EC50: TBD-6 (LC I93A) (Fab, V domains shown, Fab; also called LC I93A mutant) VH: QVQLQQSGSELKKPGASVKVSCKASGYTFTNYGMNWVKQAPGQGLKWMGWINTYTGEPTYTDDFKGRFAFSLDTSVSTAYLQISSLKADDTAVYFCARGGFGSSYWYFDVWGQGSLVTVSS VL: DIQLTQSPSSLSASVGDRVSITCKASQDVSIAVAWYQQKPGKAPKLLIYSASYRYTGVPDRFSGSGSGTDFTLTISSLQPEDFAVYYCQQHYATPLTFGAGTKVEIKR
Data returned: 0.98

Data request: Please look up its log10 EC50: TBD-21 (HC F108A) (Fab, V domains shown, Fab; also called HC F108A mutant) VH: QVQLQQSGSELKKPGASVKVSCKASGYTFTNYGMNWVKQAPGQGLKWMGWINTYTGEPTYTDDFKGRFAFSLDTSVSTAYLQISSLKADDTAVYFCARGGFGSSYWYADVWGQGSLVTVSS VL: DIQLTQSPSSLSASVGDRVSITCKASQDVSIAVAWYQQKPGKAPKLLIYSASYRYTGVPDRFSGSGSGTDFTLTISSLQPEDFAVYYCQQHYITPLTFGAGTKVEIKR
Data returned: 1.60
